Entries annotated with measured inhibition at 0.634 µM
Test system: HIV-1
Assay: NCI in vitro anti-HIV drug screen: XTT-formazan assay, protection of T4 lymphocytes (CEM) from HIV-1 cytopathic effects
Format: cell-based, human immunodeficiency virus (HIV-1)
Settings: Human immunodeficiency virus 1, CCRF-CEM, dose 6.34 × 10^-7 Molar; read-out: Percent of Protection
Dear colleague, please return just the value in %, with no unit written.

Cc1ccc(N(C)S(=O)(=O)c2ccccc2[N+](=O)[O-])cc1 [Compound 31] ... -2.85
CCNc1ccccc1S(=O)(=O)c1ccccc1[N+](=O)[O-] [Compound 81, 2-(2-NITROPHENYLSULFONYL)-N-ETHYLANILINE] ... 31.3
CNc1ccc(Cl)cc1S(=O)(=O)c1ccccc1[N+](=O)[O-] [Compound 72] ... 102

API: the following record is the query input.
Given CNc1ccccc1S(=O)(=O)c1ccc(Cl)cc1OC [Compound 86] , state its recorded inhibition at 0.634 µM.
1.22

---

System: T4 lymphocytes (CEM cell line)
Test: Cell growth / toxicity control in uninfected T4 lymphocytes (CEM), XTT-formazan
Format: cell-based
Conditions: Homo sapiens, CCRF-CEM, dose 6.33 × 10^-6 Molar; read-out: Percent of Control, Uninfected
Could you please mark TRUE for values of activity at 6.33 µM below 90% and FALSE for values at or above it?

Known results for compounds:
CNc1ccccc1S(=O)(=O)c1ccc(Cl)cc1OC ... FALSE
CCNc1ccccc1S(=O)(=O)c1ccccc1[N+](=O)[O-] ... TRUE
O=S(=O)(c1ccccc1)c1cccc2c1NCCC2 ... FALSE
O=[N+]([O-])c1ccccc1S(=O)(=O)c1cccc2c1NCCC2 ... FALSE

Switching to the query record.
Lab log: compare recorded activity at 6.33 µM with 90%; is it strictly lower for CN(c1ccccc1)S(=O)(=O)c1cccc([N+](=O)[O-])c1 ?
TRUE

---

Tested on: HIV-1
Assay: NCI in vitro anti-HIV drug screen: XTT-formazan assay, protection of T4 lymphocytes (CEM) from HIV-1 cytopathic effects
Format: cell-based, human immunodeficiency virus (HIV-1)
Conditions: Human immunodeficiency virus 1, Lymphocyte, dose 2.00 × 10^-5 Molar; read-out: Percent of Control, Infected
Binning rule for recorded activity at 20 µM: bin 0 (below 60%), bin 1 (60% to below 80%), bin 2 (80% or more)

Observe how each entry below is paired with its result.
CNc1ccc(S(=O)(=O)c2ccccc2[N+](=O)[O-])cc1Cl ... bin 2
Cc1cc2c(c(S(=O)(=O)c3ccccc3[N+](=O)[O-])c1)NCCC2 ... bin 2
CN(c1ccccc1)S(=O)(=O)c1cccc([N+](=O)[O-])c1 ... bin 0
CN(c1ccccc1Cl)S(=O)(=O)c1ccccc1[N+](=O)[O-] ... bin 1
CNc1ccc(Cl)cc1S(=O)(=O)c1ccccc1 ... bin 2

Field: class (activity at 20 µM) — entry: O=[N+]([O-])c1ccccc1S(=O)(=O)c1cccc2c1NCCC2
bin 1

In plain terms, what class is CNc1ccc(Cl)cc1S(=O)(=O)c1ccccc1[N+](=O)[O-] ?
bin 2

Field: class (activity at 20 µM) — entry: CNc1ccccc1S(=O)(=O)c1ccc(Cl)cc1OC
bin 0

---

Tested on: HIV-1
Assay: NCI in vitro anti-HIV drug screen: XTT-formazan assay, protection of T4 lymphocytes (CEM) from HIV-1 cytopathic effects
Type: cell-based, human immunodeficiency virus (HIV-1)
Conditions: Human immunodeficiency virus 1, Lymphocyte, dose 2.00 × 10^-6 Molar; read-out: Percent of Control, Infected
Binary label based on activity at 2 µM with cut-off 30%: below gives TRUE, not below gives FALSE.

Example results:
CNc1ccc(Cl)cc1S(=O)(=O)c1ccccc1[N+](=O)[O-] ... FALSE
CNc1ccc(S(=O)(=O)c2ccccc2[N+](=O)[O-])cc1C ... FALSE
CNc1ccccc1S(=O)(=O)c1ccccc1[N+](=O)[O-] ... FALSE
CNc1ccccc1S(=O)(=O)c1ccc(Cl)cc1OC ... TRUE
CCNc1ccccc1S(=O)(=O)c1ccccc1[N+](=O)[O-] ... FALSE

Identify whether the compound CNc1ccccc1S(=O)(=O)c1ccccc1Cl records activity at 2 µM below 30%.
TRUE

Consider the compound CNc1ccc(Cl)cc1S(=O)(=O)c1ccccc1 . Is its activity at 2 µM strictly less than 30%?
TRUE
